# Tested on: A549 NSCLC
# TEST_DESCRIPTION: NCI tumour cell line growth inhibition, 48 h
OBSERVABLE: TGI (µM)
Express it in µM; write the number only.

COMPOUND	EXPERIMENTAL_SYSTEM	U	MEASURED_RESULT
Cc1ccc(OCC(=O)N2N=C(c3ccccc3)CC2(O)c2ccccc2)cc1 (stereo not given)	A549 NSCLC	µM	82.8

# next compound below
## Input Please list TGI recorded for the compound CCOC(=O)c1c2c(n3ccc(NC(=O)CCN4CCCC4)cc13)C(=O)c1ncccc1C2=O
## Output 2.67

----------
# Test system: NCI-H226 lung
# TEST_DESCRIPTION: NCI tumour cell line growth inhibition, 48 h
// log10 TGI lookup, one value per entry
Values are log10 of TGI in µM.

COMPOUND	MEASURED_RESULT
Cc1ccc([N+](=O)[O-])cc1S(=O)(=O)Nc1ccc(C2=NN(c3ccc([N+](=O)[O-])cc3[N+](=O)[O-])C(c3ccccc3)C2)cc1 (stereo not drawn)	1.55

## Input For the compound CCC[CH2][Sn-]([CH2]CCC)([CH2]CCC)[O]c1cc(Cl)c(Cl)cc1Cl , give its measured log10 TGI value.
## Output -0.61

## Input Give a short answer stating reported log10 TGI for COc1ccc2c(c1)/C(=C\c1c(C)nc3sc(C)cn13)C(=O)N2C .
## Output 1.20

## Input Consider the compound Cc1cc2c(cc1Cl)Sc1nnc(Nc3ccccc3)n1S2(=O)=O . State its measured log10 TGI.
## Output 1.03

## Input Specify log10 TGI for CCOC(C[Se]CC(OCC)OCC)OCC and stop.
## Output 1.67

## Input Name the recorded log10 TGI of the item COc1cc2c3c(n(C)c(=O)c2cc1OC)-c1cc2c(cc1/C3=C\CCCCCN)OCO2 in your answer.
## Output 1.14

## Input State its log10 TGI for this compound: CN(C)c1cccc2c(S(=O)(=O)N[C@H]3CC[C@H]4[C@@H]5CCc6cc(O)ccc6[C@H]5CC[C@]34C)cccc12
## Output 1.05

## Input Look up log10 TGI of COc1ccc(N=C2CSc3nnc(-c4cc(F)c(Cl)cc4Cl)n3N2)cc1 and report it.
## Output 1.58
